molecular target: p56lck GST-SH2 (lck SH2 domain) (Homo sapiens, UniProt P06239); construct: GST (N); assay: Receptor-ligand equilibrium binding constants by surface plasmon resonance (biosensor), lck SH2 domain; conditions: Table 1, compounds of formula (II)
Sequence (P06239 127-224 limits assumed): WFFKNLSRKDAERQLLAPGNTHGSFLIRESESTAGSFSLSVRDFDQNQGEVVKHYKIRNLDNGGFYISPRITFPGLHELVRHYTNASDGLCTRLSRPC
pKd: −log10 of the molar value.

{"columns": ["Compound", "System under test", "Censoring sign", "pKd"],
 "data": [
  ["COc1ccc(Cn2ccc(C)c(NC(=O)[C@H](Cc3ccc(NC(=O)C(=O)O)cc3)NC(=O)CN3CCc4ccccc4C3)c2=O)cc1", "p56lck GST-SH2 (lck SH2 domain) (Homo sapiens, UniProt P06239)", "=", 5.92],
  ["CCCCCn1ccc(C)c(NC(=O)[C@H](Cc2ccc(CC(=O)O)cc2)NC(=O)Cc2cccc3ccccc23)c1=O", "p56lck GST-SH2 (lck SH2 domain) (Homo sapiens, UniProt P06239)", "=", 4.62],
  ["COc1ccc(Cn2ccc(C)c(NC(=O)[C@H](Cc3ccc(CC(=O)O)cc3)NC(=O)Cc3cc4ccccc4[nH]3)c2=O)cc1", "p56lck GST-SH2 (lck SH2 domain) (Homo sapiens, UniProt P06239)", "=", 5.33],
  ["Cc1ccn(C/C=C/c2ccccc2)c(=O)c1NC(=O)C(Cc1ccc(C(C)(C)C(=O)O)cc1)NC(=O)Cc1ccc2ccccc2c1 (racemic)", "p56lck GST-SH2 (lck SH2 domain) (Homo sapiens, UniProt P06239)", "=", 5.92],
  ["COc1ccc(Cn2ccc(C)c(NC(=O)[C@H](Cc3ccc(NC(=O)C(=O)O)cc3)NC(=O)Cc3c(C)[nH]c4ccccc34)c2=O)cc1", "p56lck GST-SH2 (lck SH2 domain) (Homo sapiens, UniProt P06239)", "=", 5.96],
  ["COc1ccc(Cn2ccc(C)c(NC(=O)[C@H](Cc3ccc(N(O)C(=O)C(=O)O)cc3)NC(=O)Cc3cccc4ccccc34)c2=O)cc1", "p56lck GST-SH2 (lck SH2 domain) (Homo sapiens, UniProt P06239)", "=", 5.64],
  ["CCOc1ccc(Cn2ccc(C)c(NC(=O)C(Cc3ccc(C(C)(C)C(=O)O)cc3)NC(=O)C(C)(C)c3cccc4ccccc34)c2=O)cc1 (stereo not shown)", "p56lck GST-SH2 (lck SH2 domain) (Homo sapiens, UniProt P06239)", "=", 5.06],
  ["COc1ccc(Cn2cc(Br)c(C)c(NC(=O)[C@H](Cc3ccc(C(C)(C)C(=O)O)cc3)NC(=O)C(C)(F)c3ccc(C(F)(F)F)cc3)c2=O)cc1 (stereo partly shown)", "p56lck GST-SH2 (lck SH2 domain) (Homo sapiens, UniProt P06239)", "=", 5.80],
  ["Cc1ccn(CC2CCCCC2)c(=O)c1NC(=O)[C@H](Cc1ccc(CC(=O)O)cc1)NC(=O)Cc1cccc2ccccc12", "p56lck GST-SH2 (lck SH2 domain) (Homo sapiens, UniProt P06239)", "=", 4.92],
  ["COc1ccc(Cn2ccc(C)c(NC(=O)[C@H](Cc3ccc(CC(=O)O)cc3)NC(=O)Cc3ccc4ccccc4c3)c2=O)cc1", "p56lck GST-SH2 (lck SH2 domain) (Homo sapiens, UniProt P06239)", "=", 5.82],
  ["COc1ccc(Cn2ccc(C)c(NC(=O)C(Cc3ccc(C(C)(C)C(=O)O)cc3)NC(=O)Cc3cccc4ccccc34)c2=O)cc1 (stereo not shown) [Compound 169]", "p56lck GST-SH2 (lck SH2 domain) (Homo sapiens, UniProt P06239)", "=", 6.28],
  ["Cc1ccn(CC=CCC2CCCCC2)c(=O)c1NC(=O)[C@H](Cc1ccc(CC(=O)O)cc1)NC(=O)Cc1cccc2ccccc12", "p56lck GST-SH2 (lck SH2 domain) (Homo sapiens, UniProt P06239)", "<", 3.60],
  ["COc1ccc(Cn2ccc(C)c(NC(=O)C(Cc3ccc(C(C)(C)C(=O)O)cc3)N(C)C(=O)Cc3ccc4ccccc4c3)c2=O)cc1 (racemic)", "p56lck GST-SH2 (lck SH2 domain) (Homo sapiens, UniProt P06239)", "=", 5.35]
]}

---

target: p56lck GST-SH2 (lck SH2 domain) (Homo sapiens); construct: GST (N); assay: Receptor-ligand equilibrium binding constants by surface plasmon resonance (biosensor), lck SH2 domain; details: Table 1, compounds of formula (II)
pKd: −log10 of the molar value.
Result type: pKd

{"columns": ["Compound", "Censoring sign", "Val"],
 "data": [
  ["COc1ccc(Cn2ccc(C)c(NC(=O)[C@H](Cc3ccc(NC(=O)C(=O)O)cc3)NC(=O)c3csc(NS(=O)(=O)c4ccc(Cl)cc4)n3)c2=O)cc1", "=", 5.38],
  ["COc1ccc(C(C)n2ccc(C)c(NC(=O)C(Cc3ccc(C(C)(C)C(=O)O)cc3)NC(=O)Cc3cccc4ccccc34)c2=O)cc1 (stereo not drawn)", "=", 6.17],
  ["COc1ccc(C(C)n2ccc(C)c(NC(=O)[C@H](Cc3ccc(CC(=O)O)cc3)NC(=O)C(C)(C)C)c2=O)cc1 (stereo partly drawn)", "=", 4.49],
  ["CCCCCCn1cc(-c2ccccc2)c(C)c(NC(=O)C(Cc2ccc(C(C)(C)C(=O)O)cc2)NC(=O)Cc2ccc3ccccc3c2)c1=O (stereo not drawn)", ">", 5.10],
  ["COc1ccc(C(C)n2ccc(C)c(NC(=O)C(Cc3ccc(C(C)(C)C(=O)O)cc3)NC(=O)C(C)(C)c3ccc4ccccc4c3)c2=O)cc1 (stereo not drawn)", "=", 5.89],
  ["COc1ccc(Cn2cc(I)c(C)c(NC(=O)C(Cc3ccc(C(C)(C)C(=O)O)cc3)NC(=O)Cc3ccc4ccccc4c3)c2=O)cc1 (racemic)", "=", 6.85]
]}

---

biological target: p56lck GST-SH2 (lck SH2 domain) (Homo sapiens, UniProt P06239); construct: GST (N); assay: Receptor-ligand equilibrium binding constants by surface plasmon resonance (biosensor), lck SH2 domain; conditions: Table 1, compounds of formula (II)

{"columns": ["Molecule", "Unit of measurement", "Censoring sign", "Kd"],
 "data": [
  ["COc1ccc(Cn2ccc(C)c(NC(=O)[C@H](Cc3ccc(C(C)(C)C(=O)O)cc3)NC(=O)[C@@H](C)c3ccc(CC(C)C)cc3)c2=O)cc1", "nM", "=", 1400],
  ["COc1ccc(Cn2cc(Br)c(C)c(NC(=O)[C@H](Cc3ccc(C(C)(C)C(=O)O)cc3)NC(=O)Cc3ccc(C(F)(F)F)cc3)c2=O)cc1", "nM", "=", 80],
  ["CCC(CC)(C(=O)NC(Cc1ccc(C2(C(=O)O)CCCC2)cc1)C(=O)Nc1c(C)ccn(Cc2ccc(OC)cc2)c1=O)c1ccc2ccccc2c1 (stereo not drawn)", "nM", ">", 15000],
  ["COc1ccc(Cn2cc(/C=C/C(N)=O)c(C)c(NC(=O)C(Cc3ccc(C(C)(C)C(=O)O)cc3)NC(=O)Cc3ccc4ccccc4c3)c2=O)cc1 (racemic)", "nM", "=", 170],
  ["CCCCCCn1ccc(C)c(NC(=O)C(Cc2ccc(C(C)(C)C(=O)O)cc2)NC(=O)Cc2ccccc2OC)c1=O (stereo not drawn)", "nM", "=", 1700],
  ["COc1ccc(Cn2ccc(C)c(NC(=O)[C@H](Cc3ccc(NC(=O)C(=O)O)cc3)NC(=O)Cc3nc(-c4ccccc4)sc3C)c2=O)cc1", "nM", "=", 1800],
  ["COc1ccc(Cn2ccc(C)c(NC(=O)C(Cc3ccc(C(C)(C)C(=O)O)cc3)NC(=O)C(C)(C)c3ccc(N(C)C)cc3)c2=O)cc1 (stereo not drawn)", "nM", "=", 510],
  ["COc1ccc(Cn2ccc(C)c(NC(=O)C(Cc3ccc(C(C)(C)C(=O)O)cc3)NC(=O)Cc3ccc4ccccc4c3)c2=O)cc1O (stereo not drawn)", "nM", "=", 5800],
  ["COc1ccc(Cn2ccc(C)c(NC(=O)[C@H](Cc3ccc(C(C)(C)C(=O)O)cc3)NC(=O)Cc3ccc(Br)c4ccccc34)c2=O)cc1", "nM", "=", 510],
  ["COc1ccc(Cn2ccc(C)c(NC(=O)[C@H](Cc3ccc(CC(=O)O)cc3)NC(=O)Cc3cc(=O)oc4cc(N(C)C)ccc34)c2=O)cc1", "nM", "=", 17000],
  ["COc1ccc(Cn2ccc(C)c(NC(=O)[C@H](Cc3ccc(CC(=O)O)cc3)NC(=O)Cc3cccc(O)c3)c2=O)cc1", "nM", "=", 2800],
  ["COC1CCC(Cn2ccc(C)c(NC(=O)C(Cc3ccc(C(C)(C)C(=O)O)cc3)NC(=O)Cc3ccc(C(F)(F)F)cc3)c2=O)CC1 (stereo not drawn)", "nM", "=", 3600]
]}

---

Below is a list of entries, each paired with its recorded pKd value.
molecular target: p56lck GST-SH2 (lck SH2 domain) (Homo sapiens, UniProt P06239); construct: GST (N); test: Receptor-ligand equilibrium binding constants by surface plasmon resonance (biosensor), lck SH2 domain; settings: Table 1, compounds of formula (II)
pKd: −log10 of the molar value.
Result type: pKd

{"columns": ["Molecule", "Result type", "Val"],
 "data": [
  ["COc1ccc(Cn2ccc(C)c(NC(=O)C(Cc3ccc(C(C)(C)C(=O)O)cc3)NC(=O)C(C)(C)c3ccc4ccccc4c3)c2=O)cc1O (stereo not drawn) [Compound 232]", "pKd", 4.48],
  ["COc1ccc(Cn2ccc(C)c(NC(=O)[C@H](Cc3ccc(NC(=O)C(=O)O)cc3)NC(=O)Cc3ccc(C(C)C)cc3)c2=O)cc1 [Compound 43]", "pKd", 5.72],
  ["COCCOCCn1ccc(C)c(NC(=O)C(Cc2ccc(C(C)(C)C(=O)O)cc2)NC(=O)C(C)(C)c2ccc3ccccc3c2)c1=O (stereo not drawn) [Compound 144]", "pKd", 4.70]
]}
